- PROCEDURE SUMMARY: physchem
- CONDITION: aqueous buffer, pH 7
- Description: In vitro solubility in rat hepatocytes; buffer pH 7
READOUT NAME: solubility (µM)

Consider the worked cases shown below.
MOLECULE	READOUT NAME	READOUT UNIT	MEASURED RESULT
CC(C(=O)Nc1cc(C2CC2)[nH]n1)c1ccc(N2CC(=O)NC2=O)cc1 (centres undefined)	solubility	µM	201
CC(C(=O)Nc1cc(C2CC2)[nH]n1)c1ccc(N2CCCC2)cc1 (centres undefined)	solubility	µM	3
C[C@@H](C(=O)Nc1cc(C2CC2)[nH]n1)c1ccc(N2CCNC2=O)cc1	solubility	µM	220
C[C@@H](C(=O)Nc1cc(C2CC2)[nH]n1)c1ccc(N2Cc3ccccc3C2=O)cc1	solubility	µM	51
C[C@H](C(=O)Nc1cc(C2CC2)[nH]n1)c1ccc(N2Cc3ccccc3C2=O)cc1	solubility	µM	5
C[C@H](C(=O)Nc1cc(C2CC2)[nH]n1)c1ccc(N2CCOC2=O)cc1	solubility	µM	232

I. CC(C(=O)Nc1cc(C2CC2)[nH]n1)c1ccc(N2CCCS2(=O)=O)cc1 (centres undefined)
II. O=C(Cc1ccc2ccccc2c1)Nc1cc(C2CC2)n[nH]1
q: Consider I and II . Which of these has its solubility at a higher number? When you have decided, please share the label of that item.
a: I
(I: 135 µM, II: 22 µM)

a. CC(C(=O)Nc1cc(C2CC2)[nH]n1)c1ccc(N2C(=O)CCC2c2ccccc2)cc1 (centres undefined)
b. C[C@@H](C(=O)Nc1cc(C2CC2)[nH]n1)c1ccc(N2CCOC2=O)cc1
c. CC(C(=O)Nc1cc(C2CC2)[nH]n1)c1ccc(-n2cn[nH]c2=O)cc1 (centres undefined)
d. CC(C(=O)Nc1cc(C2CC2)[nH]n1)c1ccc(N2Cc3ccccc3C2=O)cc1 (centres undefined)
e. C[C@H](C(=O)Nc1cc(C2CC2)[nH]n1)c1ccc(N2CCCC2)cc1
q: Rank descending by solubility. Thanks in advance for listing the labels in the requested order.
a: b, c, a, e, d
(b: 220 µM, c: 109 µM, a: 50 µM, e: 24 µM, d: 12 µM)

I. CC(C(=O)Nc1cc(C2CC2)[nH]n1)c1ccc(-n2cc[nH]c2=O)cc1 (centres undefined)
II. CC(C(=O)Nc1cc(C2CC2)[nH]n1)c1ccc(N2CCC(C(N)=O)C2=O)cc1 (centres undefined)
q: Consider I and II . Which of these has its solubility at a higher number? When you have decided, please share the label of that item.
a: I
(I: 233 µM, II: 120 µM)
